src = patent US8618114B2

tgt: 5-HT6 receptor (Homo sapiens (Human))
experiment: competitive radioligand binding ([3H] Lysergic acid diethylamide) to serotonin 5-HT6 receptors, HeLa cell membranes
condition details: read-out: IC50, competitive assay of serotonin 5-HT6 receptor inhibition; displacement of 1.5 nM [3H] Lysergic acid diethylamide, 120 min at 37° C.
pIC50: −log10 of the molar value. Structures can show the parent of a compound that is named as a salt.
Classification field: criterion met = pIC50 at or over 7; criterion not met = pIC50 under 7.

Answered cases to consult:
| molecule | category |
| --- | --- |
| CNc1nn2c(C)c(CN)c(C)nc2c1S(=O)(=O)c1ccccc1 [1.2.22(2).HCl] | criterion met |
| CNc1nn2c(C)c(CCC(=O)N(C)CCN(C)C)c(C)nc2c1S(=O)(=O)c1ccccc1 [1.2.19(2).HCl] | criterion not met |
| COc1cc(-c2cccnc2)nc2c(S(=O)(=O)c3ccccc3)c(SC)nn12 | criterion met |
| CNc1nn2c(C)ccnc2c1S(=O)(=O)c1ccccc1 | criterion met |
| CSc1nn2c(C)c(Oc3ccccc3)c(C)nc2c1S(=O)(=O)c1ccccc1 | criterion met |
| CNc1nn2cccnc2c1S(=O)(=O)c1ccc(F)cc1 | criterion met |

[Q] Does the reported pIC50 for CNc1nn2c(C)c(CCC(=O)N3CCN(C)CC3)c(C)nc2c1S(=O)(=O)c1ccccc1 [1.2.19(4).HCl] fall at or above the 7 mark?
[A] criterion not met

[Q] Does the reported pIC50 for CCOC(=O)Cc1c(C)nc2c(S(=O)(=O)c3ccccc3)c(NC(C)C)nn2c1C fall at or above the 7 mark?
[A] criterion met

----------
Listing of entries alongside the reported IC50.
tgt: 5-HT6 receptor (Homo sapiens (Human))
experiment: competitive radioligand binding ([3H] Lysergic acid diethylamide) to serotonin 5-HT6 receptors, HeLa cell membranes
condition details: read-out: IC50, competitive assay of serotonin 5-HT6 receptor inhibition; displacement of 1.5 nM [3H] Lysergic acid diethylamide, 120 min at 37° C.
Counter-ions that a name gives are not always drawn.
The reply should be a number in nM, with the unit left off.

Solved cases below.
| compound | value unit | IC50 |
| --- | --- | --- |
| CSc1nn2c(C)ccnc2c1S(=O)(=O)c1ccccc1 [1.1.3(1)] | nM | 40 |
| CNc1nn2c(C)c(CCC(=O)N(C)CCCN(C)C)c(C)nc2c1S(=O)(=O)c1ccccc1 [1.2.19(3).HCl] | nM | 291 |
| CNc1nn2c(N3CCN(C)CC3)cc(C)nc2c1S(=O)(=O)c1ccccc1 [1.2.12(4).HCl] | nM | 4.19 |

Kindly consider the entry below.
Looking up CNc1nn2cccnc2c1S(=O)(=O)c1cccc(Cl)c1 [1.2.1(4)] , I found its IC50 recorded as 5.01

----------
tgt: 5-HT6 receptor (Homo sapiens (Human))
experiment: functional assay for serotonin 5-HT6 receptor inhibition (serotonin-induced intracellular cAMP, LANCE cAMP kit, HEK 293 cells)
Format: cell-based
condition details: HEK 293 cells with expressed 5-HT6 receptor; reduction of serotonin-induced intracellular cAMP
Where a name gives a salt, the structure may show the parent alone.
Listing of entries alongside the reported log10 of IC50.
Values are log10 of IC50 in µM.

| compound | observed property | observed measurement |
| --- | --- | --- |
| CNc1nn2c(C)cc(CN(C)C)nc2c1S(=O)(=O)c1ccccc1 [1.2.23(10).HCl] | log10 of IC50 | -1.22 |
| CSc1nn2c(C)cc(CO)nc2c1S(=O)(=O)c1ccccc1 | log10 of IC50 | -0.75 |
| CNc1nn2c(C)c(N(C)C)c(C)nc2c1S(=O)(=O)c1ccccc1 [1.2.22(24).HCl] | log10 of IC50 | -2.22 |
| CNc1nn2c(N)cc(C)nc2c1S(=O)(=O)c1ccccc1 | log10 of IC50 | -1.92 |
| CNc1nn2c(C)c(CCCN)c(C)nc2c1S(=O)(=O)c1ccccc1 [1.2.22(4).HCl] | log10 of IC50 | -1.11 |
| COc1cc(-c2ccccn2)nc2c(S(=O)(=O)c3ccccc3)c(SC)nn12 | log10 of IC50 | 1.48 |
| CNc1nn2c(NC)cc(C)nc2c1S(=O)(=O)c1ccccc1 | log10 of IC50 | -2.05 |
| CNc1nn2c(C)c(CN)c(C)nc2c1S(=O)(=O)c1cccc(Cl)c1 [1.2.22(5).HCl] | log10 of IC50 | -2.00 |
| CNc1nn2cccnc2c1S(=O)(=O)c1ccc(F)cc1 | log10 of IC50 | -1.35 |
| CNc1nn2c(C)cc(CO)nc2c1S(=O)(=O)c1ccccc1 | log10 of IC50 | -1.72 |

Looking up CNc1nn2c(C)cc(CN(C)C)nc2c1S(=O)(=O)c1cccc(Cl)c1 [1.2.23(11).HCl] , I found its log10 of IC50 recorded as -1.17

Looking up CNc1nn2c(NCCN(C)C)cc(C)nc2c1S(=O)(=O)c1ccccc1 , I found its log10 of IC50 recorded as 0.19

Looking up CNc1nn2c(CN(C)C)cc(C)nc2c1S(=O)(=O)c1cccc(Cl)c1 [1.2.24(11).HCl] , I found its log10 of IC50 recorded as -1.48

Looking up CSc1nn2ccc(C)nc2c1S(=O)(=O)c1ccc(F)c(Cl)c1 , I found its log10 of IC50 recorded as -0.73

Looking up CSc1nn2cccnc2c1S(=O)(=O)c1ccc(F)cc1 , I found its log10 of IC50 recorded as 0.27

----------
tgt: 5-HT6 receptor (Homo sapiens (Human), UniProt P50406)
Sequence (P50406 whole entry): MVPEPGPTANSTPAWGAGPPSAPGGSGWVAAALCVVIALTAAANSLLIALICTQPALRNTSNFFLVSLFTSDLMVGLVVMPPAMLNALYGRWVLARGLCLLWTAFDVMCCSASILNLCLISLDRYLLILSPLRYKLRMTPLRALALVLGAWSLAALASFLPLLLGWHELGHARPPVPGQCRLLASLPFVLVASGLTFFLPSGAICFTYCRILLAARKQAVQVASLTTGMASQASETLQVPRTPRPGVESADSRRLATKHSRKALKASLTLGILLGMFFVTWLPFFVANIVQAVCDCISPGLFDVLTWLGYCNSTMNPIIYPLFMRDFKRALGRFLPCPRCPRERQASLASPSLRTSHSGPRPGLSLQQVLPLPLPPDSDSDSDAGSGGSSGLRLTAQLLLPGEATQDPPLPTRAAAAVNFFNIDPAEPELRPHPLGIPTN
experiment: functional assay for serotonin 5-HT6 receptor inhibition (serotonin-induced intracellular cAMP, LANCE cAMP kit, HEK 293 cells)
Assay type: cell-based
condition details: HEK 293 cells with expressed 5-HT6 receptor; reduction of serotonin-induced intracellular cAMP
pIC50: −log10 of the molar value. Counter-ions that a name gives are not always drawn.
Classification field: yes = pIC50 at or over 6; no = pIC50 under 6.

| compound | category |
| --- | --- |
| CNc1nn2c(C)c(CCC(=O)N(C)CCCN(C)C)c(C)nc2c1S(=O)(=O)c1ccccc1 [1.2.19(3).HCl] | no |
| CNc1nn2ccc(C)nc2c1S(=O)(=O)c1ccccc1 | yes |
| CSc1nn2cccnc2c1S(=O)(=O)c1ccccc1 | no |
| CSc1nn2ccc(C)nc2c1S(=O)(=O)c1ccccc1 | yes |

Turning to the following compound.
[Q] Does the reported pIC50 for CNc1nn2c(N(C)C)cc(-c3cccnc3)nc2c1S(=O)(=O)c1ccccc1 fall at or above the 6 mark?
[A] yes

----------
Listing of entries alongside the reported IC50.
tgt: 5-HT6 receptor (Homo sapiens (Human))
experiment: functional assay for serotonin 5-HT6 receptor inhibition (serotonin-induced intracellular cAMP, LANCE cAMP kit, HEK 293 cells)
Type: cell-based
condition details: HEK 293 cells with expressed 5-HT6 receptor; reduction of serotonin-induced intracellular cAMP
Where a name gives a salt, the structure may show the parent alone.
The reply should be a number in nM, with the unit left off.

| molecule | value unit | observed measurement |
| --- | --- | --- |
| CSc1nn2cccnc2c1S(=O)(=O)c1cccc(Cl)c1 | nM | 473 |

Looking up CNc1nn2c(C)c(CN(C)C)c(C)nc2c1S(=O)(=O)c1ccccc1 [1.2.22(10).HCl] , I found its IC50 recorded as 26

Looking up CNc1nn2c(N(C)C)cc(C)nc2c1S(=O)(=O)c1ccccc1 , I found its IC50 recorded as 12

Looking up CNc1nn2c(C)c(CCN)c(C)nc2c1S(=O)(=O)c1ccccc1 [1.2.22(3).HCl] , I found its IC50 recorded as 45

Looking up CNc1nn2c(OC)cc(-c3cccnc3)nc2c1S(=O)(=O)c1ccccc1 , I found its IC50 recorded as 12

Looking up CNc1nn2c(C)c(Cl)c(C)nc2c1S(=O)(=O)c1ccccc1 , I found its IC50 recorded as 52

Looking up CSc1nn2cccnc2c1S(=O)(=O)c1ccc(F)c(Cl)c1 , I found its IC50 recorded as 912

Looking up CNc1nn2c(-c3cccnc3)ccnc2c1S(=O)(=O)c1ccccc1 , I found its IC50 recorded as 1040

Looking up CSc1nn2c(C)ccnc2c1S(=O)(=O)c1ccccc1 , I found its IC50 recorded as 1110

Looking up CNc1nn2c(CN)cc(C)nc2c1S(=O)(=O)c1ccccc1 [1.2.24(1).HCl] , I found its IC50 recorded as 15

----------
tgt: 5-HT6 receptor (Homo sapiens (Human), UniProt P50406)
experiment: competitive radioligand binding ([3H] Lysergic acid diethylamide) to serotonin 5-HT6 receptors, HeLa cell membranes
condition details: read-out: IC50, competitive assay of serotonin 5-HT6 receptor inhibition; displacement of 1.5 nM [3H] Lysergic acid diethylamide, 120 min at 37° C.
Counter-ions that a name gives are not always drawn.
The threshold is 0.9 nM. Values of IC50 beneath it are tagged y; values meeting or exceeding it are tagged n.

[Q] Does the reported IC50 of the following molecule sit strictly below 0.9 nM? CNc1nn2c(C)c(N)c(C)nc2c1S(=O)(=O)c1ccccc1 [1.2.22(1).HCl]
[A] y

[Q] Does the reported IC50 of the following molecule sit strictly below 0.9 nM? CNc1nn2c(C)c(CN)c(C)nc2c1S(=O)(=O)c1cccc(Cl)c1 [1.2.22(5).HCl]
[A] y

[Q] Does the reported IC50 of the following molecule sit strictly below 0.9 nM? CNc1nn2c(COC)cc(C)nc2c1S(=O)(=O)c1ccccc1
[A] y

[Q] Does the reported IC50 of the following molecule sit strictly below 0.9 nM? CNc1nn2c(C)c(CCN)c(C)nc2c1S(=O)(=O)c1ccccc1 [1.2.22(3).HCl]
[A] y

[Q] Does the reported IC50 of the following molecule sit strictly below 0.9 nM? CNc1nn2c(N3CCOCC3)cc(C)nc2c1S(=O)(=O)c1ccccc1
[A] n

[Q] Does the reported IC50 of the following molecule sit strictly below 0.9 nM? CNc1nn2c(N)cc(C)nc2c1S(=O)(=O)c1ccccc1
[A] y

[Q] Does the reported IC50 of the following molecule sit strictly below 0.9 nM? CNc1nn2c(C)c(CC(=O)N(C)C)c(C)nc2c1S(=O)(=O)c1ccccc1
[A] n

[Q] Does the reported IC50 of the following molecule sit strictly below 0.9 nM? CSc1nn2ccc(C)nc2c1S(=O)(=O)c1ccc(F)cc1
[A] n
